# assay protocol: Phase 1/2 clinical study, plasma pharmacokinetic evaluation
# Assay type: in vivo, human
# assay context: human, plasma, oral, 100 mg, 100 mg BID Arm A, C1D1, N=2, mean
assay readout: AUC(0-t) (µg·h/mL)
Please reply with the bare figure in µg·h/mL and do not write the unit itself.

Note down AUC(0-t) recorded for C=C1C[C@@H]2CC[C@H]1[C@@H](C(=O)N1CCC3(CC1)CN(c1ncncc1Oc1ccc(F)cc1C(=O)N(C(C)C)C(C)C)C3)N2
4.94

###

# assay protocol: Phase 1/2 clinical study, plasma pharmacokinetic evaluation
# Format: in vivo, human
# assay context: human, plasma, oral, 140 mg, 140 mg BID Arm A, Cycle 2 Day 1, N=5 (incl. two patients with MDS), mean
assay readout: Cmax
Answer as a quantity: numeral, then unit.

Note down Cmax recorded for C=C1C[C@@H]2CC[C@H]1[C@@H](C(=O)N1CCC3(CC1)CN(c1ncncc1Oc1ccc(F)cc1C(=O)N(C(C)C)C(C)C)C3)N2
1.67 µg/mL

###

# assay protocol: Phase 1/2 clinical study, plasma pharmacokinetic evaluation
# Type: in vivo, human
# assay context: human, plasma, oral, Arm B, 40-60 mg BID; read-out: Mean plasma t1/2
assay readout: half-life

Note down half-life recorded for C=C1C[C@@H]2CC[C@H]1[C@@H](C(=O)N1CCC3(CC1)CN(c1ncncc1Oc1ccc(F)cc1C(=O)N(C(C)C)C(C)C)C3)N2
2.61 to 7.29 h

###

# assay protocol: Phase 1/2 clinical study, plasma pharmacokinetic evaluation
# Type: in vivo, human
# assay context: human, plasma, oral, 100 mg, Table 15 cut-off; 100 mg BID Arm A, Cycle 1 Day 1, N=2, mean
assay readout: AUC(0-t)
Answer as a quantity: numeral, then unit.

Note down AUC(0-t) recorded for C=C1C[C@@H]2CC[C@H]1[C@@H](C(=O)N1CCC3(CC1)CN(c1ncncc1Oc1ccc(F)cc1C(=O)N(C(C)C)C(C)C)C3)N2 [the present compound]
4940 ng·h/mL

###

# assay protocol: Phase 1/2 clinical study, plasma pharmacokinetic evaluation
# Assay type: in vivo, human
# assay context: human, plasma, oral, 80 mg, 80 mg BID Arm A, C2D1, N=2, mean
assay readout: AUC(0-t) (ng·h/mL)
Please reply with the bare figure in ng·h/mL and do not write the unit itself.

Note down AUC(0-t) recorded for C=C1C[C@@H]2CC[C@H]1[C@@H](C(=O)N1CCC3(CC1)CN(c1ncncc1Oc1ccc(F)cc1C(=O)N(C(C)C)C(C)C)C3)N2 [the present compound]
2900

###

# assay protocol: Phase 1/2 clinical study, plasma pharmacokinetic evaluation
# Format: in vivo, human
# assay context: human, plasma, oral, 40 mg, 40 mg BID Arm B, C1D1, N=4, mean
# Description: In the present test of the present compound, PK samples have been collected in up to 24 patients dosed in dose groups of 40, 80, 100, and 120 mg BID Arm A, and in dose groups of 40 and 60 mg BID Arm B (Table 6). Large preliminary PK inter-patient variability was observed. (1) In the present study, PK samples have been collected in up to 42 patients dosed in dose groups of 40, 80, 100, 120, 140 and 200 mg BID Arm A, and in dose groups of 40, 60, 100, and 200 mg BID Arm B (Table 15). […]
assay readout: AUC(0-t) (ng·h/mL)
Please reply with the bare figure in ng·h/mL and do not write the unit itself.

Note down AUC(0-t) recorded for C=C1C[C@@H]2CC[C@H]1[C@@H](C(=O)N1CCC3(CC1)CN(c1ncncc1Oc1ccc(F)cc1C(=O)N(C(C)C)C(C)C)C3)N2
3270

FYI, the data here is from patent US20260248787A9.
